test system: E. coli TESEC Mtb Alr; assay: growth (OD600 after 10 h); higher = more growth (less inhibition); details: arabinose 100000 nM; compound 0.1 mM; raw OD600 reference: median of DMSO wells 0.201, cell-free background 0.041
Where a name gives a salt, the structure may show the parent alone.
Value Type: growth
Answers are plain numbers.

Compound	growth
CC(NCCc1ccc(O)cc1)C(O)c1ccc(O)cc1 (centres undefined) [Ritodrine hydrochloride]	0.21

Hi, could you look up growth for each item in my list?
1. CC(C)NCC(O)c1ccc(NS(C)(=O)=O)cc1 (centres undefined) [Sotalol hydrochloride]
2. CC[C@H]1OC(=O)[C@H](C)[C@@H](O[C@H]2C[C@@](C)(OC)[C@@H](O)[C@H](C)O2)[C@H](C)[C@@H](O[C@@H]2O[C@H](C)C[C@H](N(C)C)[C@H]2O)[C@](C)(O)C[C@@H](C)/C(=N\OCOCCOC)[C@H](C)[C@@H](O)[C@]1(C)O
3. CC(=O)OCC(=O)[C@@]12OC3(CCCC3)O[C@@H]1C[C@H]1[C@@H]3CCC4=CC(=O)C=C[C@]4(C)[C@@]3(F)[C@@H](O)C[C@@]12C [Amcinonide]

Data returned:
1: 0.173; 2: 0.0421; 3: 0.241

----------
Would you kindly list growth for each of these compounds?
tested on: E. coli TESEC Mtb Alr; test: growth (OD600 after 10 h); higher = more growth (less inhibition); settings: arabinose 1000 nM; compound 0.1 mM; raw OD600 reference: median of DMSO wells 0.294, cell-free background 0.041
Where a name gives a salt, the structure may show the parent alone.
Answers are plain numbers.

Compound	Result
COc1ccc(CC(C)NCC(O)c2ccc(O)c(NC=O)c2)cc1 (stereo not given) [Formoterol fumarate]	0.298
CC(C)(O/N=C(\C(=O)N[C@@H]1C(=O)N2C(C(=O)[O-])=C(C[n+]3ccccc3)CS[C@H]12)c1csc(N)n1)C(=O)O [Ceftazidime pentahydrate]	0.0435
CC(=C(CCO)SSCC1CCCO1)N(C=O)Cc1cnc(C)nc1N (stereo in doubt) [Fursultiamine Hydrochloride]	0.313
N#Cc1ccc(C(c2ccc(C#N)cc2)n2cncn2)cc1	0.308
O=C(Oc1cccc2cccnc12)c1ccccc1	0.264

Hey, can you go through the list below and give me growth for every item?
1. CCCCCCNC(=O)n1cc(F)c(=O)[nH]c1=O
2. C=C[C@H]1CN2CC[C@H]1C[C@@H]2[C@@H](O)c1ccnc2ccc(OC)cc12 [Quinidine hydrochloride monohydrate]

Data returned:
[0.215, 0.28]

# batch: return growth for each of the 7 compounds below
1. CN(Cc1cc(Br)cc(Br)c1N)C1CCCCC1 [Bromhexine hydrochloride]
2. OCCN1C[C@H](O)[C@@H](O)[C@H](O)[C@H]1CO
3. CN1CCC[C@@H]1CCO[C@](C)(c1ccccc1)c1ccc(Cl)cc1 [Clemastine fumarate]
4. NCCC[C@H](N)CC(=O)N[C@H]1CNC(=O)[C@H]([C@H]2C[C@H](O)NC(N)=N2)NC(=O)/C(=C/NC(N)=O)NC(=O)[C@H](CO)NC(=O)[C@H](CO)NC1=O [Viomycin sulfate]
5. CC(=O)OCC(=O)[C@@]1(OC(C)=O)[C@@H](C)C[C@H]2[C@@H]3C[C@H](F)C4=CC(=O)C=C[C@]4(C)[C@@]3(F)[C@@H](O)C[C@@]21C [Diflorasone Diacetate]
6. COc1ccc(CN(CCN(C)C)c2ccccn2)cc1 [Pyrilamine maleate]
7. OC(CCCN1CCCCC1)(c1ccccc1)c1ccccc1 [Diphenidol hydrochloride]

Data returned:
1. 0.0459
2. 0.285
3. 0.0419
4. 0.251
5. 0.178
6. 0.269
7. 0.278

// recorded growth for O=C(O)c1cc(-c2ccc(F)cc2F)ccc1O : 0.151

----------
test system: E. coli TESEC Mtb DapB; experiment: growth (OD600 after 10 h); higher = more growth (less inhibition); details: arabinose induction (level): High; compound 0.1 mM; raw OD600 reference: median of DMSO wells […], cell-free background 0.041
Structures can show the parent of a compound that is named as a salt.
Use 0.2 as the dividing line for growth, with the line itself on the YES side and lower values as NO.

The following compounds have reported results that may help.
Compound	System	Label Value
COc1cc2c(cc1OC)C(=O)C(CC1CCN(Cc3ccccc3)CC1)C2 (centres undefined) [Donepezil hydrochloride]	E. coli TESEC Mtb DapB	NO
CCOC(=O)C1=C(C)NC(C)=C(C(=O)OCC)C1c1ccccc1/C=C/C(=O)OC(C)(C)C [Lacidipine]	E. coli TESEC Mtb DapB	NO
Cc1cc(O)c(C(=O)N[C@@H](C(=O)N[C@@H]2C(=O)N3C(C(=O)O)=C(CSc4nnnn4C)CS[C@H]23)c2ccc(O)cc2)cn1 [Cefpiramide]	E. coli TESEC Mtb DapB	YES
CCOC(=O)c1ccc(OC(=O)CCCCCNC(=N)N)cc1 [Gabexate mesilate]	E. coli TESEC Mtb DapB	NO
CN(C)CCCN1c2ccccc2Sc2ccc(Cl)cc21 [Chlorpromazine hydrochloride]	E. coli TESEC Mtb DapB	NO
CCN(CC)CCNC(=O)c1ccc(N)cc1 [Procainamide hydrochloride]	E. coli TESEC Mtb DapB	NO
C/C=C(/C(=C/C)c1ccc(O)cc1)c1ccc(O)cc1 [Dienestrol]	E. coli TESEC Mtb DapB	NO
CN[C@@H]1[C@H](O[C@H]2[C@H](O[C@H]3[C@H](O)[C@@H](O)[C@H](N=C(N)N)[C@@H](O)[C@@H]3N=C(N)N)O[C@@H](C)[C@]2(O)C=O)O[C@@H](CO)[C@H](O)[C@H]1O [Streptomycin sulfate]	E. coli TESEC Mtb DapB	NO
CC(C)NCC(O)c1cc(O)cc(O)c1 (centres undefined) [Metaproterenol sulfate, orciprenaline sulfate]	E. coli TESEC Mtb DapB	NO
COc1ccccc1Oc1c(NS(=O)(=O)c2ccc(C(C)(C)C)cc2)nc(-c2ncccn2)nc1OCCO [Bosentan]	E. coli TESEC Mtb DapB	NO

Data request: Threshold query (growth >= 0.2) on CCN(CC)CCOCCOC(=O)C1(c2ccccc2)CCCC1 [Carbetapentane citrate]
Data returned: NO

Data request: For this compound, is measured growth 0.2 or higher? Clc1ccc(C(c2ccccc2Cl)C(Cl)Cl)cc1 (centres undefined) [Mitotane]
Data returned: YES

Data request: Threshold query (growth >= 0.2) on O=c1[nH]c(=O)n([C@H]2C[C@H](O)[C@@H](CO)O2)cc1I [Idoxuridine]
Data returned: NO

Data request: Hi team, for CC[N+](C)(C)Cc1ccccc1Br [Bretylium tosylate] , is the recorded growth at or above 0.2?
Data returned: YES

Data request: hey, is growth for this one >= 0.2? CC(C)(C)NC(=O)[C@H]1CC[C@H]2[C@@H]3CC[C@H]4NC(=O)C=C[C@]4(C)[C@H]3CC[C@]12C [Finasteride]
Data returned: NO

----------
system: E. coli TESEC Mtb Alr; assay: growth (OD600 after 10 h); higher = more growth (less inhibition); conditions: arabinose 100 nM; compound 0.1 mM; raw OD600 reference: median of DMSO wells 0.413, cell-free background 0.052
Counter-ions that a name gives are not always drawn.
growth vs 0.2: at or above is class 1, below is class 0.

Compound	Label Value
CC(NCCc1ccc(O)cc1)C(O)c1ccc(O)cc1 (stereo unspecified) [Ritodrine hydrochloride]	class 1
CC(Oc1ccccc1)C(=O)N[C@@H]1C(=O)N2[C@@H]1SC(C)(C)[C@@H]2C(=O)O (stereo partly specified) [Phenethicillin potassium salt]	class 1
COc1ccc2[nH]c([S+]([O-])Cc3ncc(C)c(OC)c3C)nc2n1 (stereo unspecified)	class 1
CC[C@H]1OC(=O)[C@H](C)[C@@H](O[C@H]2C[C@@](C)(OC)[C@@H](O)[C@H](C)O2)[C@H](C)[C@@H](O[C@@H]2O[C@H](C)C[C@H](N(C)C)[C@H]2O)[C@](C)(O)C[C@@H](C)C(=O)[C@H](C)[C@@H](O)[C@]1(C)O	class 0
O=C(CCCN1CCC(O)(c2ccc(Br)cc2)CC1)c1ccc(F)cc1	class 1
c1ccc(C2CN3CCSC3=N2)cc1 (stereo unspecified) [Tetramisole hydrochloride]	class 1
O=C1NCCN1CCN1CCC(c2cn(-c3ccc(F)cc3)c3ccc(Cl)cc23)CC1	class 0
CC[C@H]1OC(=O)[C@H](C)[C@@H](O[C@H]2C[C@@](C)(OC)[C@@H](O)[C@H](C)O2)[C@H](C)[C@@H](O[C@@H]2O[C@H](C)C[C@H](N(C)C)[C@H]2O)[C@](C)(O)C[C@@H](C)[C@@H]2N[C@@H](COCCOC)O[C@H]([C@H]2C)[C@]1(C)O	class 0
CCN(CC)CCNC(=O)c1cc(S(C)(=O)=O)ccc1OC [Tiapride hydrochloride]	class 1
O=c1cc(-c2ccc(O)c(O)c2)oc2cc(O)cc(O)c12	class 0

Would you kindly look at the next entry?
Data request: hey, is growth for this one >= 0.2? CC[N+](C)(CC)CCC[n+]1c(-c2ccccc2)c2cc(N)ccc2c2ccc(N)cc21 [Propidium iodide]
Data returned: class 1
